Biological target: T1, human sortilin (R&D Systems, 3154-ST) (human, UniProt Q99523 78-755)
T1 construct: sortilin, human, recombinant protein bought from R&D Systems (3154-ST); also called hSort; SORT1; source: bought: R&D Systems (3154-ST)
T1 sequence (looked up): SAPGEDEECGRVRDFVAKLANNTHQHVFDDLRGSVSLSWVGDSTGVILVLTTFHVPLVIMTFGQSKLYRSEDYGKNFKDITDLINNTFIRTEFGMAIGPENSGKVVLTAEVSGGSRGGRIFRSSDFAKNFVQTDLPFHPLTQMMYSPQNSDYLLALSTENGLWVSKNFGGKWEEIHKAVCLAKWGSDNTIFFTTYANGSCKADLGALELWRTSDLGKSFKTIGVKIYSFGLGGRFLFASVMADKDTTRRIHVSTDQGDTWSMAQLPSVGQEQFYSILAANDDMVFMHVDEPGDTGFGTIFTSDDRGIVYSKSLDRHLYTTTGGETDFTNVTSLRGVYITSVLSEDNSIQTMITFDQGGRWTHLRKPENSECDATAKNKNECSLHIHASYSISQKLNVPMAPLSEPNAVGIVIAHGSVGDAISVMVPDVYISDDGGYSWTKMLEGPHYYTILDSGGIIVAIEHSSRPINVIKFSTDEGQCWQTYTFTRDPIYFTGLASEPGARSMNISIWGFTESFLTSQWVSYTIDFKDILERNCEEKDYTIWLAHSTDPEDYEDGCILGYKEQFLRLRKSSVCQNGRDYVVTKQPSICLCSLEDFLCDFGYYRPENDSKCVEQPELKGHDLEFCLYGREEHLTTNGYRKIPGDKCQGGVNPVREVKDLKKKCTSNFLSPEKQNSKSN
Assay: SPR; Biacore 8K, affinity determination of second-generation constructs; 30-100 RU of ABD035-containing constructs captured on immobilised HSA (CM5); 1-200 nM human sortilin injected 180 s at 30 µl/min, 25°C, PBST; 60 min dissociation; 1:1 Langmuir fit; apparent constants; n=3 technical replicates
Details: both partners purified
measurement-type: pKd
A value of pKd is the negative decimal logarithm of a concentration given in moles per litre.

Query: pKd; subject: LRREAPRWDAPLRDPGLRQLL (peptide, UniProt P28799 573-593, looked up, progranulin (PGRN), human, the 21 C-terminal residues L573-L593 (PGRNC21) with A588G (PGRNC21*); numbers count from the start codon; also called the PGRN C-terminus; PGRNC alone; source: E. coli BL21 Star, purified (IMAC, HisPur Cobalt); not shown: ABD035, N-terminal, kept) [ABD-PGRNC21* (His6-ABD035-PGRNC21*)] 7.80
